target_entity: human OX1 receptor (Homo sapiens, UniProt O43613)
Construct: expressed in transfected cells; host or cells: CHO cells
Sequence (O43613 1-425): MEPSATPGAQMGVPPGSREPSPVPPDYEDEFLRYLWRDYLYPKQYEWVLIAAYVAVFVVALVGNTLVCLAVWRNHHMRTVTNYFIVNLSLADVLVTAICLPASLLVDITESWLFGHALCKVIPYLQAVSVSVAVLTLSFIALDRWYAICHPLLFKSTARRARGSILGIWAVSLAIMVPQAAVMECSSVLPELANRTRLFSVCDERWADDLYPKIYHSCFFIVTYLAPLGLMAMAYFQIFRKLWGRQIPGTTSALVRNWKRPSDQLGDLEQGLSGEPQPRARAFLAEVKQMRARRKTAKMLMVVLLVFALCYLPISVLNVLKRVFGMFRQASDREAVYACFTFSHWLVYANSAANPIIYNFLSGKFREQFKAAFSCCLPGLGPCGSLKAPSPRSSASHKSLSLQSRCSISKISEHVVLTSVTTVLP
assay_notes: Measurement of orexin receptor antagonistic activity (calcium fluorescence, FLIPRtetra)
Type: cell-based
assay_conditions: CHO, 10 μM test compound; CHO cells expressing human OX1 receptor; OX-A 1 nM; read-out: Human Orexin1 receptor inhibition (at 10 μM)
Description: Measurement of Orexin Receptor Antagonistic Activity CHO cells forcibly expressing human OX1 receptor or human OX2 receptor were seeded in each well of 384 well black transparent bottom plate (BD Falcon) at 7,500 cells/well, and cultured for one day in a 5% CO2 incubator at 37° C. […] The plate was stood for 30 min in a 5% CO2 incubator at 37° C., and further stood at room temperature for 30 min. […]
attribute_measured: inhibition at 10 µM
// unit must come after the numeric part

Record excerpt, results attached:
> print(dat)
                            compound.smiles  recorded.value
1  Cc1ccc(-n2nccn2)c(C(=O)N2CCN(c3ccc(Cl)cn3)OC[C@H]2C)c1             92%
2  Cc1ccc(-n2nccn2)c(C(=O)N2CCN(c3nc4cc(Cl)ccc4o3)OC[C@H]2C)c1            101%
3  Cc1cc(N2CCN(C(=O)c3cc(F)c(F)cc3-c3ncc(F)cn3)CCO2)nc(C)n1             17%
4  Cc1cc(C)nc(N2CCN(C(=O)c3cccc(C#N)c3)CCO2)n1              9%
5  Cc1cc(N2CCN(C(=O)c3cc(F)ccc3-n3cccn3)CCO2)nc(C)n1             23%

Hi team, please reply with inhibition at 10 µM for each item in this list.
1. Cc1nccc(N2CCN(C(=O)c3cc(Cl)ccc3-c3ncccn3)[C@H](C)CO2)n1
2. Cc1cc(N2CCN(C(=O)c3ccccc3-c3cncs3)CCO2)nc(C)n1
3. Cc1nccc(N2CCN(C(=O)c3ccccc3-c3ncccn3)C[C@H](C)O2)n1

1. 40%
2. 38%
3. 28%

Values from patent US10131653B2
